# inhibition zone (IZ) annotations
Tested on: Staphylococcus aureus
Experiment: Antibacterial activity against Staphylococcus aureus MTCC 96 after 18 to 24 hrs by agar well diffusion method; further: test concentration or dose not given here
Assay type: functional
MEASURED METRIC: inhibition zone (IZ) (mm)

| STRUCTURE STRING | MEASURED METRIC | UNIT NAME | READING |
| --- | --- | --- | --- |
| O=C(Nc1ccccc1)c1csc(-c2c[nH]c3ccccc23)n1 | inhibition zone (IZ) | mm | 14 |
| COc1cc(NC(=O)c2csc(-c3c[nH]c4ccc(F)cc34)n2)cc(OC)c1OC | inhibition zone (IZ) | mm | 12 |
| COc1ccc(NC(=O)c2csc(-c3c[nH]c4ccc(Br)cc34)n2)cc1 | inhibition zone (IZ) | mm | 14 |
| COc1cc(NC(=O)c2csc(-c3cn(Cc4ccc(Cl)cc4)c4ccccc34)n2)cc(OC)c1OC | inhibition zone (IZ) | mm | 13 |
| O=C(O)c1cn(C2CC2)c2cc(N3CCNCC3)c(F)cc2c1=O | inhibition zone (IZ) | mm | 23 |
| O=C(Nc1ccc(F)cc1)c1csc(-c2c[nH]c3ccccc23)n1 | inhibition zone (IZ) | mm | 12 |
| COc1ccc(NC(=O)c2csc(-c3cn(Cc4ccc(Cl)cc4)c4ccccc34)n2)cc1 | inhibition zone (IZ) | mm | 14 |
| COc1ccc(NC(=O)c2csc(-c3c[nH]c4ccccc34)n2)cc1 | inhibition zone (IZ) | mm | 11 |
| CN(C)c1ccc(NC(=O)c2csc(-c3c[nH]c4ccccc34)n2)cc1 | inhibition zone (IZ) | mm | 13 |
| COc1ccc(NC(=O)c2csc(-c3c[nH]c4ccccc34)n2)cc1OC | inhibition zone (IZ) | mm | 14 |
| COc1cc(NC(=O)c2csc(-c3c[nH]c4ccc(Br)cc34)n2)cc(OC)c1OC | inhibition zone (IZ) | mm | 15 |
| COc1ccc(NC(=O)c2csc(-c3c[nH]c4ccc(F)cc34)n2)cc1 | inhibition zone (IZ) | mm | 12 |
| O=C(Nc1ccccc1)c1csc(-c2cn(Cc3ccc(Cl)cc3)c3ccccc23)n1 | inhibition zone (IZ) | mm | 12 |
| COc1cc(NC(=O)c2csc(-c3c[nH]c4ccccc34)n2)cc(OC)c1OC | inhibition zone (IZ) | mm | 12 |
| COc1ccc2[nH]cc(-c3nc(C(=O)Nc4cc(OC)c(OC)c(OC)c4)cs3)c2c1 | inhibition zone (IZ) | mm | 13 |
